- studyTarget: TYK2 (Homo sapiens (Human), UniProt P29597)
- Sequence (P29597 897-1176): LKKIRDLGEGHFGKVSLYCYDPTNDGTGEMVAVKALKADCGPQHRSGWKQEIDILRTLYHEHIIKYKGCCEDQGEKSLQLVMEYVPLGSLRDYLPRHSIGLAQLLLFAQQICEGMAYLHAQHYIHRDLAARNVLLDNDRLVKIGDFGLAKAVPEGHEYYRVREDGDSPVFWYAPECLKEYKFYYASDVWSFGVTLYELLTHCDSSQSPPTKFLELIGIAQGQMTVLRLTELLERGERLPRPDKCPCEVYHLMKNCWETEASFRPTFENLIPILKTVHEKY
- assayInfo: JAK Caliper enzyme assay at 1 mM ATP (TYK2)
- Format: biochemical
- measurementContext: recombinant human kinase domain, Caliper mobility shift
Task for the reader: assign each of the following compounds its reported IC50.
Kindly provide the numeric value in µM only, without the unit symbol.

Record Cn1cc(-c2cn3nccc3c(-c3cnn([C@]4(CC#N)C[C@@H](C#N)C4)c3)n2)c(=O)[nH]1 [Example 37] , field IC50: 0.032

Reported IC50 ( Cn1cc(-c2cn3nccc3c(-c3cnn(C4(CC#N)CN(S(C)(=O)=O)C4)c3)n2)cn1 [Example 8] ) = 0.011

So for Cn1cc(-c2cn3nccc3c(-c3cnn([C@]4(CC#N)C[C@@H](C#N)C4)c3)n2)c(N)n1 [Example 23] , the logged IC50 turned out to be 0.009

Cn1cc(-c2cn3nccc3c(-c3cnn([C@]4(CC#N)C[C@@H](O)C4)c3)n2)cn1 [Example 14] has a reported IC50 of 0.081

Measured IC50 of Cn1cc(-c2cn3nccc3c(-c3cnn([C@]4(CC#N)C[C@@H](C#N)C4)c3)n2)c(CO)n1 [Example 22] : 0.03

Data point: Cn1cc(-c2cn3nccc3c(-c3cnn([C@]4(CC#N)C[C@H](O)C4)c3)n2)cn1 [Example 13] ; IC50 = 0.149

For record Cn1cc(-c2cn3nccc3c(-c3cnn([C@]4(CC#N)C[C@@H](C#N)C4)c3)n2)nn1 [Example 33] the listed IC50 is 0.052

---

Assign IC50 to each entry below.
- studyTarget: JAK1 (Homo sapiens (Human), UniProt P23458)
- Sequence (P23458 875-1153): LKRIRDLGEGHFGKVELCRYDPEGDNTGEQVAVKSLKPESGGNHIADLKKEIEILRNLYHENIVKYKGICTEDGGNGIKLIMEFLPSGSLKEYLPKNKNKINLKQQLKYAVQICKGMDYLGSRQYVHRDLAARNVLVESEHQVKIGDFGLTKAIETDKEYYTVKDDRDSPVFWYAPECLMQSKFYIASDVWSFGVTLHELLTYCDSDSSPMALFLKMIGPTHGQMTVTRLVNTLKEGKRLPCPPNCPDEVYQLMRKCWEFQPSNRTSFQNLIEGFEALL
- assayInfo: JAK Caliper enzyme assay at 1 mM ATP (JAK1)
- measurementContext: recombinant human kinase domain, Caliper mobility shift
Your answer is read as nM, so omit the unit and give the number.

Given item `Cn1cc(-c2cn3nccc3c(-c3cnn([C@]4(CC#N)C[C@@H](C#N)C4)c3)n2)nn1` , the value recorded as its IC50 is 8720

Measured IC50 of `N#CC[C@]1(n2cc(-c3nc(-c4cc(C(N)=O)no4)cn4nccc34)cn2)C[C@H](C#N)C1` : 3930

Form: compound = `CO[C@H]1C[C@](CC#N)(n2cc(-c3nc(-c4cnn(C)c4)cn4nccc34)cn2)C1` ; IC50 = 1500

Input `Cc1nn([C@]2(CC#N)C[C@@H](C#N)C2)cc1-c1nc(-c2cnn(C)c2)cn2nccc12` . Output IC50: 1290

Consider `Cn1cc(-c2cn3nccc3c(-c3cnn([C@]4(CC#N)C[C@@H](C#N)C4)c3)n2)c(CO)n1` . Its measured IC50 is 2540

---

Assign pIC50 to each entry below.
- studyTarget: JAK1 (Homo sapiens (Human), UniProt P23458)
- assayInfo: JAK Caliper enzyme assay at 1 mM ATP (JAK1)
- measurementContext: recombinant human kinase domain, Caliper mobility shift
Scale: negative log10 of molar concentration, which is what pIC50 denotes.

Recorded result, `CO[C@H]1C[C@](CC#N)(n2cc(-c3nc(-c4cc(NC(C)=O)[nH]n4)cn4nccc34)cn2)C1` , pIC50: 5.72

// pIC50 lookup, molecule = `Cn1cc(-c2cn3nccc3c(-c3cnn([C@]4(CC#N)C[C@@](C)(C#N)C4)c3)n2)cn1` , result: 5.72

Quick note, pIC50 for `Cn1cc(-c2cn3nccc3c(-c3cnn(C4(CC#N)CN(CC#N)C4)c3)n2)cn1` landed at 6.60

Sure, the documented pIC50 for `Cc1cc2c(-c3cnn([C@]4(CC#N)C[C@@H](C#N)C4)c3)nc(-c3cnn(C)c3)cn2n1` is 5.45

`Cn1cc(-c2cn3nccc3c(-c3cnn([C@]4(CC#N)C[C@](C)(C#N)C4)c3)n2)cn1` yielded pIC50 of 7.02

`Cc1cc(-c2cn3nccc3c(-c3cnn([C@]4(CC#N)C[C@@H](C#N)C4)c3)n2)n[nH]1` has a reported pIC50 of 6.15

Recorded pIC50 (molecule `Cn1cc(-c2cn3nccc3c(-c3cnn(C4(CC#N)CCC4)c3)n2)cn1` ): 5.87
